Values from paper PMC12395807

- measurement.target: LBD of chemoreceptor R7 (WP_019915375.1)
- Sequence (as listed by the source): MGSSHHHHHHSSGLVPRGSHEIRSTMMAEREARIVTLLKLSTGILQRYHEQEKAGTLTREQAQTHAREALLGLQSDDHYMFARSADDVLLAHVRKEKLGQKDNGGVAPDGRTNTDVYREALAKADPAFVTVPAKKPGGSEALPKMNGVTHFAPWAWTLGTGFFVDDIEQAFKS
- experimental.details: ITC binding to R7-LBD
- Parameters: species or system Methyloversatilis discipulorum
- cond: 20 °C, Nb = no binding

molecule	KD
O=C(CO)COP(=O)(O)O [dihydroxyacetone phosphate]	Nb
O=P(O)(O)OCC(O)CO (stereo not shown) [glycerol 3-phosphate]	bound
O=CC(CO)OP(=O)(O)O (stereo not shown) [glyceraldehyde 2-phosphate]	bound
O=C(O)[C@@H](O)COP(=O)(O)O [3-phosphoglycerate]	Nb

---

- Tested on: Pectobacterium atrosepticum SCRI1043
- experimental.details: Growth experiment, sole phosphorus source
- Format: cell-based
- cond: PFM9 minimal medium, 5 mM ligand, 30 °C, 48 h

compound	growth as sole phosphorus source
O=P(O)(O)OC(CO)CO [glycerol 2-phosphate]	permitted growth
O=C(O)[C@@H](O)COP(=O)(O)O [3-phosphoglycerate]	permitted growth
